Biological target: recombinant mouse GALK1 (Mus musculus)
Experiment: mGALK1 biochemical activity assay (Kinase-Glo Plus, ATP depletion)
Conditions: recombinant mouse GALK1, Kinase-Glo Plus ATP depletion; read-out: mGALK

| compound | IC50, µM |
| --- | --- |
| CC1=C(C(=O)Nc2cc(C(=O)O)ccn2)C(c2cccc([N+](=O)[O-])c2Cl)N=C(Nc2nc3ccc(F)cc3o2)N1 (stereo not shown) | 34.3 |
| CC1=C(C(=O)Nc2cc(C(=O)O)ccn2)C(c2cccc(F)c2Cl)N=C(Nc2nc3ccc(F)cc3o2)N1 (stereo not shown) | 15.3 |
| COc1ccc(C2N=C(Nc3nc4ccc(F)cc4o3)NC(C)=C2C(=O)Nc2cc(C(=O)O)ccn2)c(Cl)c1 (racemic) | 3.06 |
| CCOC(=O)C1=C(C)NC(Nc2nc3ccccc3o2)=NC1c1ccccc1Cl (stereo not shown) | 13.7 |

----------
Target: recombinant mouse GALK1 (Mus musculus, UniProt Q9R0N0)
Sequence (Q9R0N0 whole entry): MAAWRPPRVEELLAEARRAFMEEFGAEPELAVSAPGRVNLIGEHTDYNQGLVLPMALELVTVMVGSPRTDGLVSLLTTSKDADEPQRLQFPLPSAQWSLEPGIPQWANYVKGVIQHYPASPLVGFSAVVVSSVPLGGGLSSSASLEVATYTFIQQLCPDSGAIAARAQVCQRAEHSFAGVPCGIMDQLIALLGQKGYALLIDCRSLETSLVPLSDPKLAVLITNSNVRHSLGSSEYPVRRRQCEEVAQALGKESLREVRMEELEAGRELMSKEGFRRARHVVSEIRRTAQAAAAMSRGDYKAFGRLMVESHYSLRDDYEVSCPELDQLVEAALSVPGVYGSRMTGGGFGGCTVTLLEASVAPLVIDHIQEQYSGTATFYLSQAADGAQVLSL
Test: mGALK1 biochemical activity assay (Kinase-Glo Plus, ATP depletion)
Conditions: recombinant mouse GALK1, Kinase-Glo Plus ATP depletion; read-out: mGALK
pIC50: −log10 of the molar value.

| molecule | pIC50 |
| --- | --- |
| CC1=C(C(=O)Nc2ccc(-n3cccn3)cc2)C(c2ccccc2Cl)N=C(Nc2nc3ccccc3o2)N1 (stereo not shown) | 4.91 |
| CC1=C(C(=O)Nc2cc(C(=O)O)ccn2)[C@H](c2ccc(C)cc2Cl)N=C(Nc2nc3cccc(N)c3o2)N1 | 5.85 |
| COc1ccc(C(=O)O)cc1NC(=O)C1=C(C)NC(Nc2nc3ccc(F)cc3o2)=NC1c1ccccc1Cl (stereo not shown) | 4.91 |
| CC1=C(C(=O)Nc2cc(C(=O)O)ccn2)C(c2cccc(C(N)=O)c2)N=C(Nc2nc3ccc(F)cc3o2)N1 (stereo not shown) | 4.66 |
| CC1=C(C(=O)Nc2cc(C(=O)O)ccn2)C(c2ccccc2Cl)N=C(Nc2nc3cc(C)ccc3o2)N1 (stereo not shown) | 5.51 |
| CC1=C(C(=O)NCc2cnn(C)c2)C(c2ccc(F)cc2Cl)N=C(Nc2nc3cccc(N)c3o2)N1 (stereo not shown) | 5.16 |
| CC1=C(C(=O)Nc2cccc(C(=O)O)n2)C(c2ccccc2Cl)N=C(Nc2nc3ccccc3o2)N1 (stereo not shown) | 5.16 |

----------
Each entry below carries its recorded IC50.
Target: recombinant human GALK1 (Homo sapiens, UniProt P51570)
Sequence (P51570 whole entry): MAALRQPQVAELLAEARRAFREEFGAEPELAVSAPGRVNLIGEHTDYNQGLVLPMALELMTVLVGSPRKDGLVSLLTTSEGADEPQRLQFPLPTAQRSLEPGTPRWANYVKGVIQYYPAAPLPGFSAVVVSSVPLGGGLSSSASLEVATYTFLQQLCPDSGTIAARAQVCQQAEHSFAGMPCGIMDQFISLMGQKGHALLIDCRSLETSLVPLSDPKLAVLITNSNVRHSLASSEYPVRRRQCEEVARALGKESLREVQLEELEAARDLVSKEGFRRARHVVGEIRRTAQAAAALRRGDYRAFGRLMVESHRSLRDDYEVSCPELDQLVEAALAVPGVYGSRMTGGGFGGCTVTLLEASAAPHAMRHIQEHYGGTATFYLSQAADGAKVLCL
Assay: hGALK1 biochemical activity assay (Kinase-Glo Plus, ATP depletion)
Details: recombinant human GALK1, Kinase-Glo Plus ATP depletion; read-out: hGALK

| molecule | IC50 (µM) |
| --- | --- |
| CC1=C(C(=O)Nc2cc(C(=O)O)ccn2)C(c2ccc(C)cc2Cl)N=C(Nc2nc3cnccc3o2)N1 (stereo not shown) | 0.86 |
| COC(=O)c1cccc(CNC(=O)C2=C(C)NC(Nc3nc4ccccc4o3)=NC2c2ccccc2Cl)c1 (stereo not shown) | 4.85 |
| CC1=C(C(=O)Nc2cc(B(O)O)ccn2)C(c2ccc(C)cc2Cl)N=C(Nc2nc3ccc(F)cc3o2)N1 (stereo not shown) | 1.93 |
| CC1=C(C(=O)Nc2cc(C(=O)O)ccn2)C(c2cccc(F)c2Cl)N=C(Nc2nc3ccc(F)cc3o2)N1 (stereo not shown) | 4.85 |
| CC1=C(C(=O)NCc2cnn(C)c2)C(c2ccccc2Cl)N=C(Nc2nc3cccc(N)c3o2)N1 (stereo not shown) | 0.39 |
| COC(=O)c1cncc(NC(=O)C2=C(C)NC(Nc3nc4ccccc4o3)=NC2c2ccccc2Cl)c1 (stereo not shown) | 21.7 |
| CC1=C(C(=O)Nc2cc(C(=O)O)ccn2)C(c2ccc(-c3ccccc3)cc2Cl)N=C(Nc2nc3ccc(F)cc3o2)N1 (stereo not shown) | 3.43 |

----------
Assay: PAMPA permeability
Details: PAMPA
List of Perm. (1 × 10^−6 cm/sec) values.
result.type: Perm. (1 × 10^−6 cm/sec)

| compound | assay.result |
| --- | --- |
| CC1=C(C(=O)Nc2ncc(CO)s2)C(c2ccccc2Cl)N=C(Nc2nc3ccccc3o2)N1 (stereo not drawn) [Compound 193] | 161.4 1 × 10^−6 cm/sec |
| CC1=C(C(=O)Nc2nncs2)C(c2ccncc2Br)N=C(Nc2nc3ccccc3o2)N1 (stereo not drawn) [Compound 255] | 208.7 1 × 10^−6 cm/sec |
| CC1=C(C(=O)Nc2nncs2)C(c2ccccc2Br)N=C(Nc2nc3ccccc3o2)N1 (stereo not drawn) [Compound 251] | 446.9 1 × 10^−6 cm/sec |
| CC1=C(C(=O)Nc2ccc(Br)cc2)C(c2ccccc2Cl)N=C(Nc2nc3ccccc3o2)N1 (stereo not drawn) [Compound 150] | <14.9 1 × 10^−6 cm/sec |
| CC1=C(C(=O)Nc2cccc(-c3nnn[nH]3)c2)C(c2ccccc2Cl)N=C(Nc2nc3ccccc3o2)N1 (stereo not drawn) [Compound 175] | 5.0 1 × 10^−6 cm/sec |
| CC1=C(C(=O)NCc2cnn(C)c2)C(c2ccccc2Cl)N=C(Nc2nc3ccccc3o2)N1 (stereo not drawn) [Compound 238] | 807.7 1 × 10^−6 cm/sec |
| CC1=C(C(=O)Nc2ccc(C(=O)O)nc2)C(c2ccccc2Cl)N=C(Nc2nc3ccccc3o2)N1 (stereo not drawn) [Compound 164] | <1 1 × 10^−6 cm/sec |
| CC1=C(C(=O)NCc2ccc(Cl)cc2)C(c2ccccc2Cl)N=C(Nc2nc3ccccc3o2)N1 (stereo not drawn) [Compound 218] | 25.8 1 × 10^−6 cm/sec |
| CC1=C(C(=O)Nc2cccc(-c3cn[nH]c3)c2)C(c2ccccc2Cl)N=C(Nc2nc3ccccc3o2)N1 (stereo not drawn) [Compound 178] | <25.4 1 × 10^−6 cm/sec |
| CC1=C(C(=O)Nc2cccc(Br)c2)C(c2ccccc2Cl)N=C(Nc2nc3ccccc3o2)N1 (stereo not drawn) [Compound 147] | <1.8 1 × 10^−6 cm/sec |
| CCn1cc(CNC(=O)C2=C(C)NC(Nc3nc4ccc(F)c(N)c4o3)=N[C@@H]2c2ccc(C)cc2Cl)cn1 [Compound 134] | 772.8 1 × 10^−6 cm/sec |
| CCn1cc(CNC(=O)C2=C(C)NC(Nc3nc4ccc(F)c(N)c4o3)=NC2c2ccc(Cl)cc2Cl)cn1 (stereo not drawn) [Compound 130] | 380.3 1 × 10^−6 cm/sec |
| CC1=C(C(=O)Nc2cc(C(=O)O)ccn2)[C@H](c2ccccc2Cl)N=C(Nc2nc3ccccc3o2)N1 [Compound 208] | <1 1 × 10^−6 cm/sec |
| CC1=C(C(=O)Nc2cc(C(=O)O)ccc2F)C(c2ccccc2Cl)N=C(Nc2nc3ccccc3o2)N1 (stereo not drawn) [Compound 210] | 3.3 1 × 10^−6 cm/sec |
| COCCNC(=O)C1CC(=O)C2=C(C1)NC(Nc1nc3ccccc3o1)=NC2c1ccccc1Cl (stereo not drawn) [Compound 280] | 747.27 1 × 10^−6 cm/sec |
| CC1=C(C(=O)Nc2ccc(F)cc2)C(c2ccccc2Cl)N=C(Nc2nc3ccccc3o2)N1 (stereo not drawn) [Compound 148] | 29.4 1 × 10^−6 cm/sec |
| CCOC(=O)N1C(Nc2nc3ccccc3o2)=NC(c2ccccc2Cl)C(C(=O)Nc2cc(C(=O)O)ccn2)=C1C (stereo not drawn) [Compound 274] | <1 1 × 10^−6 cm/sec |
| CC1=C(C(=O)Nc2ccc(-n3cccn3)cc2)C(c2ccccc2Cl)N=C(Nc2nc3ccccc3o2)N1 (stereo not drawn) [Compound 184] | <11.8 1 × 10^−6 cm/sec |
| CC1=C(C(=O)NCc2cnn(C)c2)C(c2ccc(Cl)cc2Cl)N=C(Nc2nc3ccc(F)c(N)c3o2)N1 (stereo not drawn) [Compound 127] | 166.7 1 × 10^−6 cm/sec |
| CC1=C(C(=O)NCc2cnn(CC(F)(F)F)c2)C(c2ccc(C)cc2Cl)N=C(Nc2nc3ccc(F)c(N)c3o2)N1 (stereo not drawn) [Compound 131] | 193.1 1 × 10^−6 cm/sec |
| COc1ccc(Cl)c(C2N=C(Nc3nc4ccccc4o3)NC(C)=C2C(=O)Nc2nncs2)c1 (stereo not drawn) [Compound 269] | 19.8 1 × 10^−6 cm/sec |
| CC1=C(C(=O)Nc2nnc(-c3cccnc3)s2)C(c2ccccc2Cl)N=C(Nc2nc3ccccc3o2)N1 (stereo not drawn) [Compound 180] | <3.7 1 × 10^−6 cm/sec |
| CC1=C(C(=O)Nc2cc(C(N)=O)ccn2)C(c2ccccc2Cl)N=C(Nc2nc3ccccc3o2)N1 (stereo not drawn) [Compound 212] | 156.0 1 × 10^−6 cm/sec |
| COC(=O)c1ccnc(NC(=O)C2=C(C)NC(Nc3nc4ccccc4o3)=N[C@@H]2c2ccccc2Cl)c1 [Compound 207] | 250.4 1 × 10^−6 cm/sec |
| COc1ccccc1CNC(=O)C1=C(C)NC(Nc2nc3ccccc3o2)=NC1c1ccccc1Cl (stereo not drawn) [Compound 215] | 99.3 1 × 10^−6 cm/sec |
| CC1=C(C(=O)Nc2ccc(N(C)C)cc2)C(c2ccccc2Cl)N=C(Nc2nc3ccccc3o2)N1 (stereo not drawn) [Compound 152] | 15.0 1 × 10^−6 cm/sec |
| CC(C)CC1=C(C(=O)Nc2nncs2)C(c2ccccc2Cl)N=C(Nc2nc3ccccc3o2)N1 (stereo not drawn) [Compound 248] | 42.7 1 × 10^−6 cm/sec |
| CNC(=O)c1ccnc(NC(=O)C2=C(C)NC(Nc3nc4ccccc4o3)=NC2c2ccccc2Cl)c1 (stereo not drawn) [Compound 213] | 421.9 1 × 10^−6 cm/sec |
| COC(=O)c1ccc(NC(=O)C2=C(C)NC(Nc3nc4ccccc4o3)=NC2c2ccccc2Cl)cn1 (stereo not drawn) [Compound 166] | 96.1 1 × 10^−6 cm/sec |
| CN(C)CCNC(=O)C1CC(=O)C2=C(C1)NC(Nc1nc3ccccc3o1)=NC2c1ccccc1Cl (stereo not drawn) [Compound 284] | <9.8 1 × 10^−6 cm/sec |
